Measurement Description: chemical genetic growth profiling, strain panel (AID 1159580);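 further: tested at 20 µM; growth read once vehicle control cultures reached saturation at 30 °C; 1 = growth at the plate median or of vehicle wells; lower values mean less growth of the strain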
Particulars: S. cerevisiae deletion strains, growth OD, locus YDL192W, strain arf1, stronger effect = lower value
The campaign covered roughly 5,500 compounds. About 2,000 (36%) were called active. Roughly 18% stayed inconclusive and do not appear here. The list shows a part of the results.
Experimental Endpoint: normalized growth
Write the value as a bare number.

// below: answered compounds
{"Compound": "CCC/C=C/C=C/[C@@H]1C[C@@H](O)[C@@H](O)C(=O)[C@H]1C=O", "normalized growth": 0.949}
{"Compound": "COc1cc2c3cc1Oc1cc(ccc1O)C[C@@H]1c4c(cc(OC)c(O)c4Oc4ccc(cc4)C[C@@H]3N(C)CC2)CC[N+]1(C)C", "normalized growth": 0.998}
{"Compound": "CC(=O)O[C@H]1C[C@H](O[C@H]2[C@@H](O)C[C@H](O[C@H]3[C@@H](O)C[C@H](O[C@H]4CC[C@@]5(C)C(CCC6C5C[C@@H](O)[C@]5(C)[C@@H](C7=CC(=O)OC7)CC[C@]65O)C4)O[C@@H]3C)O[C@@H]2C)O[C@H](C)[C@H]1O[C@@H]1O[C@H](CO)[C@@H](O)[C@H](O)[C@H]1O (some centres not stated)", "normalized growth": 1.01}
{"Compound": "CN(C)CCC=C1c2ccccc2CCc2ccccc21", "normalized growth": 0.996}
{"Compound": "CC1(C)O[C@@H]2CC3C4CCC5=CC(=O)C=C[C@]5(C)[C@@]4(F)[C@@H](O)C[C@]3(C)[C@]2(C(=O)CO)O1 (some centres not stated)", "normalized growth": 1.01}
{"Compound": "CN(C)CC/C=C1/c2ccccc2COc2ccccc21", "normalized growth": 1.03}

# ---- query compound ----
Request: Form field: reported normalized growth of CC1=C2C(=CO[C@H](C)[C@H]2C)C(=O)C(C(=O)O)=C1O
Result: 0.983
